test system: UACC-62 melanoma; assay: NCI tumour cell line growth inhibition, 48 h
property_label: GI50

1. NC(=S)N=Nc1c(O)[nH]c2ccccc12 | 209000 nM
2. Nc1cc(N)c2nc(-c3ccccc3)c(Oc3ccc(Cl)c(Cl)c3)nc2c1 | 16300 nM
3. CCCC(CCC)C(=O)O | > 100000 nM
4. CC(CNc1nc(Nc2ccc(Cl)c(Cl)c2)nc(C(Cl)(Cl)Cl)n1)N(C)C (stereo unspecified) | 1710 nM
5. O=C(N/N=C/c1cccc(O)c1)c1ccc(C(F)(F)F)nc1Nc1cccc(C(F)(F)F)c1 | 1810 nM
6. O=C(Nc1ccc(N2CCNCC2)cn1)c1[nH]ncc1Nc1ncnc2sc3c(c12)CCC3 | 1980 nM

---

system: UACC-257 melanoma; assay: NCI tumour cell line growth inhibition, 48 h
Label Criterion met when TGI >= 30 µM; otherwise Criterion not met.

1) COc1cc2c(cc1O)N=C[C@@H]1CCC(O)N1C2=O (mixture of isomers) | Criterion not met
2) O=C1/C(=C/c2cccc(F)c2)CN(C(=O)C(Cl)Cl)C/C1=C\c1cccc(F)c1 | Criterion not met
3) Cn1c(=O)c2[nH]cnc2n(C)c1=O.[CH2-]C(Cc1cccc2cc(C(=O)O)c(=O)oc12)OC.[Hg+2].[OH-] (stereo not given) | Criterion met
4) OCC1(CNc2cc(Cl)ncn2)CCC1 | Criterion met
5) CC(=O)Nc1ccccc1S(=O)c1ccccc1 (stereo not given) | Criterion met
6) CN1CCN(Cc2ccc(NC(=O)c3cncc(C#Cc4ncc5ccccn45)c3)cc2C(F)(F)F)CC1 | Criterion not met
7) Nc1ncnc2c1ncn2C1OC(C(=O)OCCO)C(O)C1O (stereo not given) | Criterion met
8) C=[N+](CNC(=O)CNC(=O)C(Cc1ccccc1)NC(=O)OC(C)(C)C)C(=O)CNC(=O)C(Cc1ccccc1)NC(=O)OC(C)(C)C (stereo not given) | Criterion met
9) Cc1ccc(C)c(C(=N)c2ccccc2Cc2ccccc2)c1 | Criterion met
10) COC(=O)C(Cc1ccccc1)N=Cc1c(O)c(O)c(C(C)C)c2cc(C)c(-c3c(C)cc4c(C(C)C)c(O)c(O)c(C=NC(Cc5ccccc5)C(=O)OC)c4c3O)c(O)c12 (stereo not given) | Criterion met
11) COC(=O)CCc1c(/C=C2\N=C(c3ccc[nH]3)C=C2OC)[nH]c(C)c1C(=O)OCc1ccccc1 | Criterion not met
12) CC(C)(C)c1cc2c(O)c(c1)COCc1cc(C(C)(C)C)cc(c1O)COCc1cc(C(C)(C)C)cc(c1O)COC2 | Criterion met
13) NC1=CN(Cc2ccccc2)C2=N/C(=C\c3ccco3)C(=O)N12 | Criterion met
14) Cc1ccccc1NC(=O)CC(=O)n1nc(-c2ccccc2)c(N=Nc2ccc([N+](=O)[O-])cc2)c1-c1ccccc1 | Criterion met
15) C[C@]12CC[C@H]3[C@@H](CCC4=CC(=O)CC[C@@]43C)[C@@H]1CC[C@@H]2OC(=O)c1cccc2c(=O)c3ccccc3[nH]c12 | Criterion met
16) N#CC1C(=O)NC(=O)C(C#N)C1c1ccc(Cl)c(Cl)c1 (stereo not given) | Criterion met
17) O=C(N1CCN(c2ccccc2)CC1)N(C(=O)C1(c2ccc(Cl)cc2)CCCC1)S(=O)(=O)c1ccccc1 | Criterion met
18) N#CC1([N+](=O)[O-])C=C1c1ccccc1 (stereo not given) | Criterion met
19) N=c1oc2ccc(Cl)cc2cc1C(=O)NC1CCCCC1 | Criterion met
20) COc1ccc(/C=C/C(=O)/C=C(/C=C/c2ccc(OC)c(OC)c2OC)OB(F)F)c(OC)c1OC | Criterion met
21) C#CC1(O)CC(c2ccccc2)N(C)C(c2ccccc2)C1 (stereo not given) | Criterion met
22) NS(=O)(=O)c1ccc(N=Nc2c(=O)[nH]c3ccc4[nH]cccc4c23)cc1 | Criterion not met
23) CC(C)=C=CC(C)(C)NS(=O)(=O)NC(C)(C)C=C=C(C)C | Criterion met
24) CCOC(=O)C(C(=O)OCC)C(NC(=O)Nc1cc(C(F)(F)F)ccc1OC)(C(F)(F)F)C(F)(F)F | Criterion met
25) O=C(N/N=C/c1cccc(O)c1)c1ccc(C(F)(F)F)nc1Nc1cccc(C(F)(F)F)c1 | Criterion not met
26) O=c1c2cc([N+](=O)[O-])cnc2sn1-c1ccc(Br)cc1 | Criterion met
27) CN/N=C(/CC(=O)c1sc(NNC(C)=O)nc1C)C(=O)Nc1ccc(OC)cc1OC | Criterion met
28) CC1CCC2[C@@H](C)COC3O[C@]4(C)CCC1C32OO4 (stereo not given in full) | Criterion met
29) Fc1ccc(C(OCCN2CCC3CCC(C2)N3C/C=C/c2cccnc2)c2ccc(F)cc2)cc1 (stereo not given) | Criterion not met
30) COC(=O)c1ccccc1Nc1ccccc1C(=O)OC | Criterion met
31) CCCC(=O)Oc1cc(OC(=O)CCC)c2c(C)cc(=O)oc2c1 | Criterion met
32) CC1CC/C(=C\c2ccc(F)cc2)C2=C1C(c1ccc(F)cc1)n1c(s/c(=C\c3ccc(Cl)cc3)c1=O)=N2 (stereo not given) | Criterion met
33) CC(C)[Si](OC1=CCC[C@H]2NC(=O)[C@@H](Cc3ccc([N+](=O)[O-])cc3)[C@@]12C)(C(C)C)C(C)C | Criterion not met
